Data credit: the array DNA melting data of Ke et al. (doi:10.1101/2024.01.08.574731)

measurement_description: folding enthalpy; higher = less favourable; fluorescence melt of hairpins on a sequencing array, two-state fit
measurement_conditions: sodium 0.088 M
Assignment: determine reported folding enthalpy for the given sequences.
Respond with a number, then the unit of measure.

# count of solved cases: 3
{"columns": ["residues", "measurement"],
 "data": [
  ["GATCACCTCAGTGATC ((((((....))))))", "-42.3 kcal/mol"],
  ["GTGGGCGAAAGCCCGCAC ((((((....)))..)))", "-10.2 kcal/mol"],
  ["GTTAACCCGAAAGGGAAC (((..(((....))))))", "-12.2 kcal/mol"]
]}

Now consider a different sequence.
Asked: Field request: folding enthalpy | item: GAGGCCGAAAGGCAACTC ((((((....)))..)))
Given back: -14.2 kcal/mol

----------
measurement_description: folding enthalpy; higher = less favourable; fluorescence melt of hairpins on a sequencing array, two-state fit
measurement_conditions: sodium 0.088 M
assay_endpoint: folding enthalpy (kcal/mol)
One number for each entry, in kcal/mol.

# count of solved cases: 3
{"columns": ["residues", "unit_annotation", "folding enthalpy"],
 "data": [
  ["GGCAATGGAAACGTTGCC (((((.(....).)))))", "kcal/mol", -56.8],
  ["GTCGATACGAAAGTAGAC (((..(((....))))))", "kcal/mol", -20.3],
  ["GCGAAGCGAAAGCCCCGC (((..((....))..)))", "kcal/mol", -7.44]
]}

Would you mind giving folding enthalpy for every sequence in the list below?
1. GTTGGACGAAAGTCAAAC (((.(((....))).)))
2. GATCAGTCAACTGATC ((((((....))))))
3. GCGTGTGCGAAAGCACGC (((..(((....))))))
4. GGGCGGACGAAAGTCCCC (((..(((....))))))
5. GGAGGAGCGAAAGCTTCC (((..(((....))))))

Given back:
1. -26.9
2. -37.6
3. -9.9
4. -13.8
5. -13.4

Would you mind giving folding enthalpy for every sequence in the list below?
1. GCTATAGGAAACTGTAGC ((((.((....)).))))
2. GACTAGGAAACTAGTC ((((((....))))))
3. GCGTGCGAAAGCAGACGC ((((((....)))..)))

Given back:
[-32.8, -34, -28.1]

Asked: Field request: folding enthalpy | item: GATCTGAAATCAGATC ((((((....))))))
Given back: -36.1

----------
measurement_description: melting temperature; fluorescence melt of hairpins on a sequencing array, two-state fit, raised by 9.35 °C to match UV melts
measurement_conditions: sodium 0.088 M
Binary label based on Tm with cut-off 50 °C: below gives yes (1), not below gives no (0).

These solved cases illustrate the format of a correct answer.
{"columns": ["residues", "category_label"],
 "data": [
  ["GGTTCCGAAAGGACAACC ((((((....)))..)))", "yes (1)"],
  ["GCCGTTGGAAACAACGAC (.(((((....))))).)", "yes (1)"],
  ["GGTCGTGGAAACATGGCC ((.(.((....)).).))", "yes (1)"]
]}

Asked: Please check: Tm for GGTTGTCGAAAGACCACC (((.(((....))).))) , strictly under 50 °C or not?
Given back: yes (1)

Asked: Please check: Tm for GACACCGGAAACGGCATC ((..(((....)))..)) , strictly under 50 °C or not?
Given back: yes (1)

Asked: Please check: Tm for GCCCTGCGAAAGCCGGGC ((((.((....)).)))) , strictly under 50 °C or not?
Given back: no (0)

----------
measurement_description: melting temperature; fluorescence melt of hairpins on a sequencing array, two-state fit, raised by 9.35 °C to match UV melts
measurement_conditions: sodium 0.088 M
assay_endpoint: Tm (°C)
One number for each entry, in °C.

# count of solved cases: 5
{"columns": ["residues", "Tm (°C)"],
 "data": [
  ["GCGTACACACGC ((((....))))", 51.4],
  ["GGTAGAGAAATCTACC ((((((....))))))", 49.2],
  ["GCGCCAGGAAACCAGCGC ((((..(....)..))))", 51.4],
  ["GGGATCACGAAAGTGCCC (((..(((....))))))", 39.3],
  ["GATCAGATTACTGATC ((((((....))))))", 50]
]}

Would you mind giving Tm for every sequence in the list below?
1. GCATAGCGAAAGCACTGC (((..((....))..)))
2. CGTCGCGGAAACGCACG (((.(((....))))))

Given back:
39.6
50.5

----------
measurement_description: folding enthalpy; higher = less favourable; fluorescence melt of hairpins on a sequencing array, two-state fit
measurement_conditions: sodium 0.088 M
Threshold rule: folding enthalpy greater than or equal to -30 kcal/mol is Y; below that, N.

These solved cases illustrate the format of a correct answer.
{"columns": ["residues", "category_label"],
 "data": [
  ["GATCCGTTGACGGATC ((((((....))))))", "N"],
  ["GATCTACTACTAGATC ((((((....))))))", "N"],
  ["GGTTCCGAAAGGAAGACC ((((((....)))..)))", "Y"],
  ["GAGTGAGCGAAAGCTCTC (((..(((....))))))", "Y"],
  ["GCCCAGCGAAAGCAAGGC (((..((....))..)))", "Y"],
  ["GTTATGCGAAAGCAGAAC (((.(((....))).)))", "N"],
  ["CGTTCTCGGAAACGAACG (((..(((....))))))", "Y"],
  ["GGATATGGAAACATACCC ((.((((....)))).))", "Y"],
  ["GATCCAGTGCTGGATC ((((((....))))))", "N"],
  ["GATCCCTCACGGGATC ((((((....))))))", "N"]
]}

Asked: Please tell me: is the sequence GACGAACGAAAGTTGTC (((.(((....)))))) at or over -30 kcal/mol in terms of folding enthalpy?
Given back: Y

Asked: Please tell me: is the sequence GGTACCGAAAGGTCCACC ((((((....)))..))) at or over -30 kcal/mol in terms of folding enthalpy?
Given back: Y

Asked: Please tell me: is the sequence GATCCTGCAGAGGATC ((((((....)))))) at or over -30 kcal/mol in terms of folding enthalpy?
Given back: N

Asked: Please tell me: is the sequence GCACACGGAAACGTATGC (((.(((....))).))) at or over -30 kcal/mol in terms of folding enthalpy?
Given back: Y

Asked: Please tell me: is the sequence GCTGGGGGAAACCCTGGC ((..(((....)))..)) at or over -30 kcal/mol in terms of folding enthalpy?
Given back: Y

Asked: Please tell me: is the sequence GCCTACGAAAGTACTGGC ((((((....)))..))) at or over -30 kcal/mol in terms of folding enthalpy?
Given back: Y

Asked: Please tell me: is the sequence GTGGTCCCGAAAGGGCAC (((..(((....)))))) at or over -30 kcal/mol in terms of folding enthalpy?
Given back: Y

Asked: Please tell me: is the sequence GGGTTGGGAAACTAACCC (((((.(....).))))) at or over -30 kcal/mol in terms of folding enthalpy?
Given back: N

----------
measurement_description: folding enthalpy; higher = less favourable; fluorescence melt of hairpins on a sequencing array, two-state fit
measurement_conditions: sodium 0.088 M
Class membership depends on folding enthalpy alone; the intervals are bucket 1 = under -30 kcal/mol, bucket 2 = from -30 kcal/mol up to -20 kcal/mol, bucket 3 = -20 kcal/mol and over

These solved cases illustrate the format of a correct answer.
{"columns": ["residues", "category_label"],
 "data": [
  ["GCAGCCGAAAGGCCTTGC ((((((....)))..)))", "bucket 3"],
  ["GGGCTGGGAAACTAGCCC (((((.(....).)))))", "bucket 1"],
  ["GAGGACGAAAGTCCACTC ((((((....)))..)))", "bucket 3"],
  ["CGCCGCGGAAACGCGCG (((.(((....))))))", "bucket 3"],
  ["GGTAGCGAAAGCTATACC ((((((....)))..)))", "bucket 3"],
  ["GATCAAGTAGTTGATC ((((((....))))))", "bucket 1"],
  ["GCTTTCGGAAACGAAAAC (.(((((....))))).)", "bucket 2"],
  ["GACCCAGGAAACTAGGTC ((((.((....)).))))", "bucket 2"],
  ["GATCCAAGAGTGGATC ((((((....))))))", "bucket 2"],
  ["GCGGTCGAAAGACGTCGC ((((((....)))..)))", "bucket 2"]
]}

Now for another entry.
Asked: Hi there! Could you help me figure out the category for GATCCATATTGGATC ((((((...)))))) please?
Given back: bucket 1
